- System: CRL-7250
- experiment-notes: Cytotoxic Profiling of Annotated Libraries Using Quantitative High-Throughput Screening (AID 1296008); note: % is set by controls: 0 for no effect and ±100 for the full control effect; nearly all actives have a fitted effect of over 60% in size
- condition-details: Five cell lines viability, CellTiter-Glo ATP luminescence, 48-72 h; active compounds read low
Results filed as inconclusive are left out.
property-measured: max response (%)

* CC(C)C(=O)Nc1ncc(-c2cc(C(F)F)nn2-c2c(Cl)cccc2Cl)s1 | -16.9
* O=c1cc(N2CCOCC2)oc2c(-c3cccc4c3sc3ccccc34)cccc12 | -14.3
* O=C(O)c1c(Cl)c(Cl)c(Cl)c(Cl)c1-c1c2cc(I)c(=O)c(I)c-2oc2c(I)c(O)c(I)cc12 | -20.2
* O=C(NC1CCOCC1)c1ccc(-c2cc(-c3cn[nH]c3-c3ccccn3)ccn2)cc1 | -5.17
* O=C1NC(=O)C(=Cc2ccc(-c3ccc(F)cc3)o2)S1 | -0.559
* CC[C@H]1OC(=O)[C@H](C)C(=O)[C@H](C)[C@@H](O[C@H]2O[C@H](C)C[C@H](N(C)C)[C@@H]2O)[C@](C)(OC)C[C@@H](C)C(=O)[C@H](C)[C@H]2N(CCCCn3cnc(-c4cccnc4)c3)C(=O)O[C@]12C | -7.01
* c1cc(-c2sc(-c3ccncc3)c(-c3ccncc3)c2-c2ccncc2)ccn1 | -2.98
* CN(C)CCC(c1ccccc1)c1ccccn1 (centres undefined) | -4.39
* O=C(CCc1ccc(O)cc1)c1c(O)cc(O)cc1O[C@@H]1O[C@H](CO)[C@H](O)[C@H](O)[C@H]1O | -9.67
